test: Plasma protein binding, human; format: in vitro ADME; conditions: equilibrium dialysis, 37 °C

COMPOUND	fraction unbound at 6 h, 5 µM
C=CC(=O)Nc1cc(Nc2nccc(-c3cn(C)c4ccccc34)n2)c(OC)cc1N(C)CCN(C)C [Osimertinib, osimertinib, reference compound]	0.029
C=CC(=O)Nc1cccc(-c2c(-c3ccc(N4CCN(C)CC4)cc3)[nH]c3ncnc(OCC(C)C)c23)c1 [Compound 19h]	0.001
C=CC(=O)Nc1cccc(Oc2nc(Nc3ccc(N4CCN(C)CC4)cc3OC)ncc2Cl)c1 [WZ4002, reference compound]	0.008

* * *

target: EGFR-wt (Homo sapiens, UniProt P00533); assay: HTRF KinEASE-TK activity-based assay, EGFR-wt; settings: EGFR HTRF IC50 wt, ATP at Km (9.5 µM), 30 min preincubation; mean ± SD of three independent measurements in duplicates
Sequence (P00533 25-1210): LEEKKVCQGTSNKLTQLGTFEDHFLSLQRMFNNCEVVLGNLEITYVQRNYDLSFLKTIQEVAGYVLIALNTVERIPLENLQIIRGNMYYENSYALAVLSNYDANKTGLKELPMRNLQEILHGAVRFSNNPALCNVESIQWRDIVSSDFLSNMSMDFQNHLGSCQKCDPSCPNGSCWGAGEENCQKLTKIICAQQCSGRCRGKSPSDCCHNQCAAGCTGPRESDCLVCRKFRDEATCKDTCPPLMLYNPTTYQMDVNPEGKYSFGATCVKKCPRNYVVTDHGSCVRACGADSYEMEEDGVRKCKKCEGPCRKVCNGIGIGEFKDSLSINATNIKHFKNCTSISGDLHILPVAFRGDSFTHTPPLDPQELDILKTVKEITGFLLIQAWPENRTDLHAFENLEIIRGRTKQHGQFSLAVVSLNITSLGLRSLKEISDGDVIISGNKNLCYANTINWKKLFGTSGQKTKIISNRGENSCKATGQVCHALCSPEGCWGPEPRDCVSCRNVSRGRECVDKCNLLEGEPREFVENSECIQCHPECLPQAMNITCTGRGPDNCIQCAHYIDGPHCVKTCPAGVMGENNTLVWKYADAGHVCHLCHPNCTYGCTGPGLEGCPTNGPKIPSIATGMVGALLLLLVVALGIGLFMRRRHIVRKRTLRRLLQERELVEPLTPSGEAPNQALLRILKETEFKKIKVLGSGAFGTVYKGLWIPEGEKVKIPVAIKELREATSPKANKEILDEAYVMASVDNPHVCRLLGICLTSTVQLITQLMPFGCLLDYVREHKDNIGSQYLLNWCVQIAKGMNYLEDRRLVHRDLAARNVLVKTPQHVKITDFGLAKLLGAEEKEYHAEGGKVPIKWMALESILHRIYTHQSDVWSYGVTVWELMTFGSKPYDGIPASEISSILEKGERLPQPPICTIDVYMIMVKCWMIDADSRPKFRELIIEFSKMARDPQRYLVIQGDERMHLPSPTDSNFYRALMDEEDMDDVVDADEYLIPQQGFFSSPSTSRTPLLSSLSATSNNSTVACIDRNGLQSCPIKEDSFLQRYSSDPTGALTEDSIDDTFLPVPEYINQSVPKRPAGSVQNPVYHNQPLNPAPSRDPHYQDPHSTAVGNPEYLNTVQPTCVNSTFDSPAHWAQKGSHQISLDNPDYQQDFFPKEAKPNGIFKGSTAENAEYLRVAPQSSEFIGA
pIC50: −log10 of the molar value.

COMPOUND	MEASURED TARGET	pIC50
C#CCn1cnc2[nH]c(-c3ccc(N4CCN(C)CC4)cc3)c(-c3cccc(NC(=O)C=C)c3)c2c1=O [Compound 29c]	EGFR-wt (Homo sapiens, UniProt P00533)	8.29
C=CC(=O)Nc1cccc(-c2c(-c3ccc(N4CCN(C)CC4)cc3)[nH]c3ncn(C(C)C)c(=O)c23)c1 [Compound 29g]	EGFR-wt (Homo sapiens, UniProt P00533)	9.00
C=CC(=O)Nc1cccc(-c2c(-c3ccc(N4CCN(C)CC4)cc3)[nH]c3ncn(Cc4ccccc4)c(=O)c23)c1 [Compound 29l]	EGFR-wt (Homo sapiens, UniProt P00533)	9.00
C=CC(=O)Nc1cccc(-c2c(-c3ccc(N4CCN(C)CC4)cc3)[nH]c3ncn(CCCSC)c(=O)c23)c1 [Compound 29f]	EGFR-wt (Homo sapiens, UniProt P00533)	8.34
C=CC(=O)Nc1cccc(-c2c(-c3ccc(N4CCN(C)CC4)cc3)[nH]c3ncn(C)c(=O)c23)c1 [Compound 29a]	EGFR-wt (Homo sapiens, UniProt P00533)	8.92
CCC(=O)Nc1cccc(-c2c(-c3ccc(N4CCN(C)CC4)cc3)[nH]c3ncn(C)c(=O)c23)c1 [Compound 19b]	EGFR-wt (Homo sapiens, UniProt P00533)	6.00
C=CC(=O)Nc1cccc(-c2c(-c3ccc(C)cc3)[nH]c3ncnc(OC)c23)c1 [Compound 10a]	EGFR-wt (Homo sapiens, UniProt P00533)	6.70
C=CC(=O)Nc1cccc(-c2c(-c3ccc(N4CCN(C)CC4)cc3)[nH]c3ncn(CC(C)C)c(=O)c23)c1 [Compound 29h]	EGFR-wt (Homo sapiens, UniProt P00533)	9.10
